# STUDY SYSTEM: D(2) dopamine receptor (Homo sapiens, UniProt P14416)
# Sequence (P14416 whole entry): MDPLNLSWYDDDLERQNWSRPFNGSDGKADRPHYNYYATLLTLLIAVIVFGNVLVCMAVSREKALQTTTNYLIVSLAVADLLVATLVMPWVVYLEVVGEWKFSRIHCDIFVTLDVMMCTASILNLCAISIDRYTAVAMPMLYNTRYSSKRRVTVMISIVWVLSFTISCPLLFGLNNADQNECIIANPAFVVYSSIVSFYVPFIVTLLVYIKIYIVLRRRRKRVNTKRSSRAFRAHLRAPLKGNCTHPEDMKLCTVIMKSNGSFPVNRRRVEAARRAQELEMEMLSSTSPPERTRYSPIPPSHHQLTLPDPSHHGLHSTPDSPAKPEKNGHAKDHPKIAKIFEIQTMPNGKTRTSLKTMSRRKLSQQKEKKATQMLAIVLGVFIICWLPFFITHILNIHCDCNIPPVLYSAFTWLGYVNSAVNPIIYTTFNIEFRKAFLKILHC
# TEST SUMMARY: In vitro displacement of [3H]spiperone from the recombinant human dopamine receptor D2L stably expressed in CHO cells
# Assay type: cell-based
MEASUREMENT TYPE: Ki (nM)

>>> measured_result("COc1ccc(Br)cc1-c1nc(CNC[C@@H]2CCN(Cc3ccccc3)C2)cs1")
185
>>> measured_result("COc1ccc(Br)cc1-c1nc(CNC2CCN(Cc3ccccc3)CC2)co1")
940
>>> measured_result("c1ccc(CN2CCN(Cc3coc(-c4ccccc4)n3)CC2)cc1")
27500
>>> measured_result("COc1ccc(Br)cc1-c1nc(CN2CCN(c3ccccc3)CC2)co1")
690
>>> measured_result("COc1ccc(Br)cc1-c1nc(CN2CCN(c3ccccc3)CC2)cs1")
610
>>> measured_result("COc1ccc(Br)cc1-c1nc(CNCCC2CCN(Cc3ccccc3)C2)co1 (stereo unspecified)")
510
>>> measured_result("c1ccc(-c2nc(CN3CCN(c4ccccc4)CC3)cs2)cc1")
2300
>>> measured_result("COc1ccc(Br)cc1-c1nc(CNCC[C@@H]2CCN(Cc3ccccc3)C2)co1")
1070
>>> measured_result("c1ccc(CN2CCC(NCc3coc(-c4ccccc4)n3)CC2)cc1")
14000
>>> measured_result("COc1ccc(Br)cc1-c1nc(CN(C)C[C@@H]2CCN(Cc3ccccc3)C2)co1")
3800
>>> measured_result("c1ccc(CN2CC[C@@H](CNCc3csc(-c4ccccc4)n3)C2)cc1 (stereo in doubt)")
7950
>>> measured_result("c1ccc(CN2CC[C@@H](CNCc3csc(-c4ccccc4)n3)C2)cc1 (stereo in doubt; 4q)")
7900
>>> measured_result("COc1ccc(Br)cc1-c1nc(CN2CCN(Cc3ccccc3)CC2)cs1")
210
>>> measured_result("COc1ccc(Br)cc1-c1nc(CNC2CCN(Cc3ccccc3)CC2)cs1")
195
>>> measured_result("c1ccc(CN2CCC(NCc3csc(-c4ccccc4)n3)CC2)cc1")
23000
>>> measured_result("COc1c(-c2nc(CNC[C@@H]3CCN(Cc4ccccc4)C3)co2)cc(Br)c2ccccc12")
45500
